Test system: E. faecalis BAA-2365
Assay: microbe, parasite or virus in culture
Format: cell-based, Enterococcus faecalis
Conditions: BAA-2365
Where a SMILES comes first, the peptide text is derived from it. Bridges are numbered along the chain shown (N, C = ends). [ ]: non-standard residue; d: D form. The star is where a group is joined. Pentadecanoyl = CCCCCCCCCCCCCCC(=O)*; Tridecanoyl = CCCCCCCCCCCCC(=O)*; dOrn = NCCC[C@@H](N)C(=O)O
assay-readout: MIC (µg/mL)
Value expressed in µg/mL; do not type the unit.

Asked: Name the recorded MIC of the item CCCCCCCCCCCCCCC(=O)N[C@H](CCCN)C(=O)N[C@H](C(=O)N[C@@H]1C(=O)N[C@H](CCCN)C(=O)N[C@@H](CO)C(=O)N[C@@H](Cc2ccc(O)cc2)C(=O)N[C@H](CCCCN)C(=O)N[C@H](CO)C(=O)N[C@@H]([C@@H](C)CC)C(=O)N2CCC[C@H]2C(=O)N[C@@H]([C@@H](C)CC)C(=O)N2CCC[C@H]2C(=O)N[C@@H]([C@@H](C)CC)C(=O)O[C@@H]1C)C(C)C [Compound B] (Pentadecanoyl-[dOrn]VT[dOrn]SY[dK][dS]IPIPI; ester 3-C; N-terminus assumed) in your answer.
Given back: 4

Asked: Specify reported MIC for the compound shown: CCCCCCCCCCCCC(=O)N[C@H](CCCN)C(=O)N[C@H](C(=O)N[C@@H]1C(=O)N[C@H](CCCN)C(=O)N[C@@H](CO)C(=O)N[C@@H](Cc2ccccc2)C(=O)N[C@H](CCCCN)C(=O)N[C@H](CO)C(=O)N[C@@H]([C@@H](C)CC)C(=O)N2CCC[C@H]2C(=O)N[C@@H]([C@@H](C)CC)C(=O)N2CCC[C@H]2C(=O)N[C@@H]([C@@H](C)CC)C(=O)O[C@@H]1C)C(C)C [Variant D] (Tridecanoyl-[dOrn]VT[dOrn]SF[dK][dS]IPIPI; ester 3-C; N-terminus assumed)
Given back: 8

Asked: Name the recorded MIC of the item CCCCCCCCCCCCC(=O)N[C@H](CCCN)C(=O)N[C@H](C(=O)N[C@@H]1C(=O)N[C@H](CCCN)C(=O)N[C@@H](CO)C(=O)N[C@@H](Cc2ccc(O)cc2)C(=O)N[C@H](CCCCN)C(=O)N[C@H](CO)C(=O)N[C@@H]([C@@H](C)CC)C(=O)N2CCC[C@H]2C(=O)N[C@@H]([C@@H](C)CC)C(=O)N2CCC[C@H]2C(=O)N[C@@H]([C@@H](C)CC)C(=O)O[C@@H]1C)C(C)C [Compound A D-form] (Tridecanoyl-[dOrn]VT[dOrn]SY[dK][dS]IPIPI; ester 3-C) in your answer.
Given back: 8
